# Tested on: sheep
# protocol.notes: Tolerance / toxicity in sheep
# Type: in vivo
# Design: key: "toxic" refers to death of sheep resulting from the use of the indicated compound at the indicated dosage
# cond: 50 mg/kg, Tables III and IV

# compound, Tolerance at 50 mg/kg
data = [
    ("Cc1c(Cl)cccc1NC(=O)c1c(C)c([N+](=O)[O-])cc(C(C)(C)C)c1O [Example 28]", "toxic"),
    ("Cc1c([N+](=O)[O-])cc(C(C)(C)C)c(O)c1C(=O)Nc1cc(Cl)ccc1Cl [Example 24, reference compound]", "toxic"),
    ("Cc1c([N+](=O)[O-])cc(C(C)(C)C)c(O)c1C(=O)Nc1ccc(Cl)c(Cl)c1 [Example 25]", "toxic"),
]
